Biological target: T1, human PVRIG-mFc protein (Acro, PVG-H5253) (human, UniProt Q6DKI7 41-171, limits assumed)
T1 construct: bought protein
T1 sequence (looked up): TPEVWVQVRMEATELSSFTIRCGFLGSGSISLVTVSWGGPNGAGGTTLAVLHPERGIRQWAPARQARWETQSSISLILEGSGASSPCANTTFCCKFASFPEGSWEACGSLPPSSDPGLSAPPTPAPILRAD
Assay: FACS competition, PVRIG-mFc binding to CHO-K1-CD112 cells, competitor CD112 on cells

binder: PVRIG-A117 (Fc fusion, heavy chain antibody VHH-hinge-CH2-CH3, human IgG1 constant part; not shown: human IgG1 hinge-CH2-CH3) EVQVVESGGGLVQAGGSLRLSCTASEHIYDLYIMGWYRQAPGKDRELVATITYTGSIYIADSVKDRFTISRGNAKNTVSLQMSGLKPEDTAVYYCNADPSGLGRKLYWGQGTQVTVSS
% AUC to SRF813-hIgG1: 72.7%

binder: PVRIG-A15 (Fc fusion, heavy chain antibody VHH-hinge-CH2-CH3, human IgG1 constant part; not shown: human IgG1 hinge-CH2-CH3) QVQLVESGGGLVQAGGSLRLSCVASGRTFSANTMAWFRQAPGKEREFVAYTRWTDDNTDYASYADFVKGRFTAFRDNTRNTMYLQMNRLRPEDTAVYYCAAATTRGTYYSAGDYNSWGQGTQVTVSS
% AUC to SRF813-hIgG1: 77.3%

binder: PVRIG-A11 (Fc fusion, heavy chain antibody VHH-hinge-CH2-CH3, human IgG1 constant part; not shown: human IgG1 hinge-CH2-CH3) QLQLVESGGGLVQPGGSLRLSCAASGFTDDYYAIGWFRQAPGKEREGVSCISGSGGSTNYEDSVKGRFAISRDNAKNMVYLQMNDLKPEDTAVYYCAADPFWSAPCTGHNDRYFDVWGQGTLVTVSS
% AUC to SRF813-hIgG1: 58.9%

binder: PVRIG-A113 (Fc fusion, heavy chain antibody VHH-hinge-CH2-CH3, human IgG1 constant part; not shown: human IgG1 hinge-CH2-CH3) QLQLVESGGGLVQSGGSLRLSCAASGRTRSMYVMGWFRQAPGKEREFVGRIKWSGDTTYTSYADFVKGRFTLYGNQARNTVYLQMNSLKPEDTAVYYCAALPSDYDYRAASYGVDYWGKGTLVTVSS
% AUC to SRF813-hIgG1: 106%
